Quick reference for EC50 hGIP-1 (cAMP formation) among some binders
Molecular target: T1, human GIP receptor (human, UniProt P48546 22-466)
T1 sequence (looked up): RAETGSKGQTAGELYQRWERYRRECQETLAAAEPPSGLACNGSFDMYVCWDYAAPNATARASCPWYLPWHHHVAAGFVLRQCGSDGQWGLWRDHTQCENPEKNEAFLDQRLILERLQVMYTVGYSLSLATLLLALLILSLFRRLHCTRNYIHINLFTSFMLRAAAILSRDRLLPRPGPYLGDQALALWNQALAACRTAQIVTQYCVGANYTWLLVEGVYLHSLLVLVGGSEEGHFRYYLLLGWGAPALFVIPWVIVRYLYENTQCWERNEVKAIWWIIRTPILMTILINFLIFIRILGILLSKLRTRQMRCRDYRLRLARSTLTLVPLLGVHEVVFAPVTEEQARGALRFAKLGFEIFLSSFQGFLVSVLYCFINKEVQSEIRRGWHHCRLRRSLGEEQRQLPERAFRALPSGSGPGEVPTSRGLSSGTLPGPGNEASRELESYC
Assay: cell-based or functional assay
Numbered stars: 1 amine (or outer) side, 2 acyl side, 3 side chain; on linkers, the order of the positions; unused ones are H or OH. Square brackets hold non-standard residues; d marks the D form. Side chains are listed from the residue outwards. Ends that are not written are not given here. * marks the point of attachment. γGlu = O=C(O)[C@H](CCC(=O)[*:2])N[*:1]; Stearoyl = CCCCCCCCCCCCCCCCCC(=O)*; Palmitoyl = CCCCCCCCCCCCCCCC(=O)*; Aib = CC(C)(N)C(=O)O

Previously resolved entries follow.
[[record]]
binder = "H-H[Aib]HGTFTSDLSKQK(Ac)EEEAVRLFIEWLKAGGPSSGAPPPS-NH2 [SEQ ID NO: 34]"
assay_value = "0.0254 nM"

[[record]]
binder = "H[dS]HGTFTSDLSKQK([γGlu-γGlu-Palmitoyl])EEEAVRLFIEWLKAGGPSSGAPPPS-NH2 [SEQ ID NO: 13]"
assay_value = "0.079 nM"

[[record]]
binder = "H[dS]HGTFTSDLSKQK([γGlu-Palmitoyl])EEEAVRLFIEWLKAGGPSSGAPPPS-NH2 [SEQ ID NO: 14]"
assay_value = "0.437 nM"

[[record]]
binder = "H[Aib]HGTFTSDLSKQK([γGlu-Palmitoyl])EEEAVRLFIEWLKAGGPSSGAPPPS-NH2 [SEQ ID NO: 12]"
assay_value = "0.0088 nM"

[[record]]
binder = "H[dS]HGTFTSDLSKQK(Ac)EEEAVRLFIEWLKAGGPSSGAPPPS-NH2 [SEQ ID NO: 35]"
assay_value = "4.04 nM"

[[record]]
binder = "H[Aib]HGTFTSDLSKQK([γGlu-γGlu-Palmitoyl])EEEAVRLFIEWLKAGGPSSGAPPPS-NH2 [SEQ ID NO: 11]"
assay_value = "0.0079 nM"


Consider now this further binder.
Sure, the documented EC50 hGIP-1 (cAMP formation) for H[Aib]HGTFTSDLSKQK([γGlu-Stearoyl])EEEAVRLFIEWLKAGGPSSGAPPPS-NH2 [SEQ ID NO: 7] is 0.0256 nM
